# tested-target: human TAS2R4 (Homo sapiens)
# Construct: expressed in transfected cells; host or cells: HEK293T-Gα16gust44
# Sequence (Q9NYW5 whole entry): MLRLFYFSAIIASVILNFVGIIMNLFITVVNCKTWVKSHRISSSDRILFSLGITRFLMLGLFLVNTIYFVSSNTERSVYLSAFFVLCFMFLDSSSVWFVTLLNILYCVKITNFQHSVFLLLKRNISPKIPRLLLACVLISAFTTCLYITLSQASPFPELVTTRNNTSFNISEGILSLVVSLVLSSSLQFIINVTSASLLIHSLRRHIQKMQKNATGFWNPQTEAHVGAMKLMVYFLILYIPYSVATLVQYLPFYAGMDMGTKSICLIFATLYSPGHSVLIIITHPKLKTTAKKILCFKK
# assay-overview: Calcium imaging assay (FLIPR), HEK293T-Gα16gust44 cells transfected with human TAS2R4
# Assay type: cell-based
# conditions: TAS2R4; bile acids; mean
result-type: Efficacy = maximal amplitude (ΔF/F)
Give the figure by itself; no unit, no explanation.

So for `C[C@H](CCC(=O)O)[C@H]1CC[C@H]2[C@@H]3[C@@H](O)C[C@@H]4C[C@H](O)CC[C@]4(C)[C@H]3CC[C@]12C` , the logged Efficacy = maximal amplitude (ΔF/F) turned out to be 0.07236

Entry `C[C@H](CCC(=O)O)[C@H]1CC[C@H]2[C@@H]3[C@H](O)C[C@@H]4C[C@H](O)CC[C@]4(C)[C@H]3C[C@H](O)[C@]12C` — recorded Efficacy = maximal amplitude (ΔF/F) = 0.1231

Sample `C[C@H](CCC(=O)NCCS(=O)(=O)O)[C@H]1CC[C@H]2[C@@H]3CC[C@@H]4C[C@H](O)CC[C@]4(C)[C@H]3CC[C@]12C` ; Efficacy = maximal amplitude (ΔF/F) observed: 0.1385

Item: `C[C@H](CCC(=O)NCCS(=O)(=O)O)[C@H]1CC[C@H]2[C@@H]3[C@H](O)C[C@@H]4C[C@H](O)CC[C@]4(C)[C@H]3C[C@H](O)[C@]12C` | Efficacy = maximal amplitude (ΔF/F): 0.1496

Sample `C[C@H](CCC(=O)O)[C@H]1CC[C@H]2[C@@H]3CC[C@@H]4C[C@H](O)CC[C@]4(C)[C@H]3C[C@H](O)[C@]12C` ; Efficacy = maximal amplitude (ΔF/F) observed: 0.08533

What the record says about `C[C@H](CCC(=O)NCC(=O)O)[C@H]1CC[C@H]2[C@@H]3[C@H](O)C[C@@H]4C[C@H](O)CC[C@]4(C)[C@H]3C[C@H](O)[C@]12C` : Efficacy = maximal amplitude (ΔF/F) is 0.1626

---

Please provide measured RLU for the entries that follow.
# tested-target: human TAS2R1 (Homo sapiens, UniProt Q9NYW7)
# Construct: expressed in transfected cells; host or cells: HEK293T-Gα16gust44
# Sequence (Q9NYW7 whole entry): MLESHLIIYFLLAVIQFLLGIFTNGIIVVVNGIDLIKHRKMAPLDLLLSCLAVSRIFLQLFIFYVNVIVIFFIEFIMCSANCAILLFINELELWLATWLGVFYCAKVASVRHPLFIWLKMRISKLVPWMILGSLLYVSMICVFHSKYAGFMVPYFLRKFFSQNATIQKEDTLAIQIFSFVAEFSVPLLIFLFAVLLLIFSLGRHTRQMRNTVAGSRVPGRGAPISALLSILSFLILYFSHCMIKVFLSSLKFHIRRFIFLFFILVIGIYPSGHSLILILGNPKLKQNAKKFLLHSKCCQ
# assay-overview: Calcium imaging assay (FLIPR), HEK293T-Gα16gust44 cells transfected with human TAS2R1
# Format: cell-based
# conditions: Time 30.781 s
Numbers only here, please. The scale is RLU.

// RLU lookup, compound = `C[C@H](CCC(=O)NCCS(=O)(=O)O)[C@H]1CC[C@H]2[C@@H]3CC[C@@H]4C[C@H](O)CC[C@]4(C)[C@H]3CC[C@]12C` , result: 183.135

RLU measured on `C[C@H](CCC(=O)NCCS(=O)(=O)O)[C@H]1CC[C@H]2[C@@H]3[C@H](O)C[C@@H]4C[C@H](O)CC[C@]4(C)[C@H]3C[C@H](O)[C@]12C` = 168.752

The reported value for `C[C@H](CCC(=O)NCC(=O)O)[C@H]1CC[C@H]2[C@@H]3[C@H](O)C[C@@H]4C[C@H](O)CC[C@]4(C)[C@H]3C[C@H](O)[C@]12C` in terms of RLU is 256.685

// field: RLU; key: `C[C@H](CCC(=O)O)[C@H]1CC[C@H]2[C@@H]3CC[C@@H]4C[C@H](O)CC[C@]4(C)[C@H]3C[C@H](O)[C@]12C` ; value = 160.244

---

# tested-target: mouse Tas2r144 (Mus musculus)
# Construct: expressed in transfected cells; host or cells: HEK293T-Gα16gust44
# Sequence (Q7TQB8 whole entry): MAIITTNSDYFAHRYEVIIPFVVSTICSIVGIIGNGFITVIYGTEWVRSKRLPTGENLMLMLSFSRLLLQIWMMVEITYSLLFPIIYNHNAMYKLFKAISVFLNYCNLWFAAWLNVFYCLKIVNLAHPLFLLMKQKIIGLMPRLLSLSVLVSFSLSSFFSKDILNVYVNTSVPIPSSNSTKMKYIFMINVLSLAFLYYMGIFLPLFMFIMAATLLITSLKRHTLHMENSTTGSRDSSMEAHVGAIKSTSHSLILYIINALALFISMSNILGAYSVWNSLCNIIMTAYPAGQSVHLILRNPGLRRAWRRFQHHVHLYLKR
# assay-overview: Calcium imaging assay (FLIPR), HEK293T-Gα16gust44 cells transfected with mouse Tas2r144
# Format: cell-based
# conditions: Time 94.781 s
Field: RLU. Provide a value for each of the compounds that follow.
Enter your answer as a number in RLU; do not include the unit.

Recorded result, C[C@H](CCC(=O)NCCS(=O)(=O)O)[C@H]1CC[C@H]2[C@@H]3[C@H](O)C[C@@H]4C[C@H](O)CC[C@]4(C)[C@H]3C[C@H](O)[C@]12C [Taurocholic Acid, taurocholic acid] , RLU: 519.583

The compound listed as C[C@H](CCC(=O)NCCS(=O)(=O)O)[C@H]1CC[C@H]2[C@@H]3CC[C@@H]4C[C@H](O)CC[C@]4(C)[C@H]3CC[C@]12C [Taurolithocholic Acid, taurolithocholic acid] shows RLU equal to 402.42

For reference, reported RLU for C[C@H](CCC(=O)NCC(=O)O)[C@H]1CC[C@H]2[C@@H]3[C@H](O)C[C@@H]4C[C@H](O)CC[C@]4(C)[C@H]3C[C@H](O)[C@]12C [Glycocholic Acid, glycocholic acid] stands at 401.134

Memo: C[C@H](CCC(=O)O)[C@H]1CC[C@H]2[C@@H]3[C@H](O)C[C@@H]4C[C@H](O)CC[C@]4(C)[C@H]3C[C@H](O)[C@]12C [Cholic Acid, cholic acid] , reported RLU: 543.082

---

# tested-target: mouse Tas2r144 (Mus musculus)
# Construct: expressed in transfected cells; host or cells: HEK293T-Gα16gust44
# assay-overview: Calcium imaging assay (FLIPR), HEK293T-Gα16gust44 cells transfected with mouse Tas2r144
# Type: cell-based
# conditions: Time 40.781 s
result-type: RLU (RLU)
Respond with the bare value in RLU.

Data point: `C[C@H](CCC(=O)NCC(=O)O)[C@H]1CC[C@H]2[C@@H]3[C@H](O)C[C@@H]4C[C@H](O)CC[C@]4(C)[C@H]3C[C@H](O)[C@]12C` ; RLU = 324.075

Just so you know, measured RLU for `C[C@H](CCC(=O)O)[C@H]1CC[C@H]2[C@@H]3[C@H](O)C[C@@H]4C[C@H](O)CC[C@]4(C)[C@H]3C[C@H](O)[C@]12C` came out at 583.905

So for `C[C@H](CCC(=O)NCCS(=O)(=O)O)[C@H]1CC[C@H]2[C@@H]3CC[C@@H]4C[C@H](O)CC[C@]4(C)[C@H]3CC[C@]12C` , the logged RLU turned out to be 248.501

The value of RLU measured for the molecule `C[C@H](CCC(=O)NCCS(=O)(=O)O)[C@H]1CC[C@H]2[C@@H]3[C@H](O)C[C@@H]4C[C@H](O)CC[C@]4(C)[C@H]3C[C@H](O)[C@]12C` turned out to be 418.403

---

Task for the reader: assign each of the following molecules its reported RLU.
# tested-target: mouse Tas2r144 (Mus musculus)
# Construct: expressed in transfected cells; host or cells: HEK293T-Gα16gust44
# assay-overview: Calcium imaging assay (FLIPR), HEK293T-Gα16gust44 cells transfected with mouse Tas2r144
# Type: cell-based
# conditions: Time 120.781 s
Value expressed in RLU; do not type the unit.

// field: RLU; key: `C[C@H](CCC(=O)NCCS(=O)(=O)O)[C@H]1CC[C@H]2[C@@H]3[C@H](O)C[C@@H]4C[C@H](O)CC[C@]4(C)[C@H]3C[C@H](O)[C@]12C` ; value = 480.033

Entry `C[C@H](CCC(=O)O)[C@H]1CC[C@H]2[C@@H]3[C@H](O)C[C@@H]4C[C@H](O)CC[C@]4(C)[C@H]3C[C@H](O)[C@]12C` — recorded RLU = 392.039

The value of RLU measured for the molecule `C[C@H](CCC(=O)NCC(=O)O)[C@H]1CC[C@H]2[C@@H]3[C@H](O)C[C@@H]4C[C@H](O)CC[C@]4(C)[C@H]3C[C@H](O)[C@]12C` turned out to be 301.126

# molecule `C[C@H](CCC(=O)NCCS(=O)(=O)O)[C@H]1CC[C@H]2[C@@H]3CC[C@@H]4C[C@H](O)CC[C@]4(C)[C@H]3CC[C@]12C` ; its RLU = 364.459

---

# tested-target: human TAS2R14 (Homo sapiens)
# Construct: expressed in transfected cells; host or cells: HEK293T-Gα16gust44
# Sequence (Q9NYV8 whole entry): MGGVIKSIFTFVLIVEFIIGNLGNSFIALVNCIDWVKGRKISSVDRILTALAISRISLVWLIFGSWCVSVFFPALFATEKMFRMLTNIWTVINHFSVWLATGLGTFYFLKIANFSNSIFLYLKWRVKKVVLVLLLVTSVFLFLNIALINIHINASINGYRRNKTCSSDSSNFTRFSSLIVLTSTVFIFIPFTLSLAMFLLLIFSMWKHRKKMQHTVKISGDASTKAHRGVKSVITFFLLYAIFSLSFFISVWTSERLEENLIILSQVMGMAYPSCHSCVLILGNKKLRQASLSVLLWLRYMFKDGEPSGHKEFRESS
# assay-overview: Calcium imaging assay (FLIPR), HEK293T-Gα16gust44 cells transfected with human TAS2R14
# Format: cell-based
# conditions: TAS2R14 trace; Time (s) 20.797 (Chenodeoxycholic Acid 20.781)
Each entry gets false (0) if its RLU stays under -50 RLU, and true (1) if its RLU is -50 RLU or above.

hey, is RLU for this one >= -50 RLU? C[C@H](CCC(=O)NCC(=O)O)[C@H]1CC[C@H]2[C@@H]3[C@H](O)C[C@@H]4C[C@H](O)CC[C@]4(C)[C@H]3C[C@H](O)[C@]12C [Glycocholic Acid, glycocholic acid] false (0)

Determine whether this compound has RLU no lower than -50 RLU: C[C@H](CCC(=O)O)[C@H]1CC[C@H]2[C@@H]3[C@H](O)C[C@@H]4C[C@H](O)CC[C@]4(C)[C@H]3C[C@H](O)[C@]12C [Cholic Acid, cholic acid] true (1)

# bool: RLU of C[C@H](CCC(=O)O)[C@H]1CC[C@H]2[C@@H]3[C@H](O)C[C@@H]4C[C@H](O)CC[C@]4(C)[C@H]3CC[C@]12C [Chenodeoxycholic Acid, chenodeoxycholic acid] >= -50 RLU true (1)

Has C[C@H](CCC(=O)NCCS(=O)(=O)O)[C@H]1CC[C@H]2[C@@H]3CC[C@@H]4C[C@H](O)CC[C@]4(C)[C@H]3CC[C@]12C [Taurolithocholic Acid, taurolithocholic acid] a recorded RLU greater than or equal to -50 RLU? false (0)

FYI, the data here is from paper PMC10247784.
